Data origin: the RNAGym collection of RNA variant scans (doi:10.1093/molbev/msab373)

B1: Azoarcus group I ribozyme (parent)
chain: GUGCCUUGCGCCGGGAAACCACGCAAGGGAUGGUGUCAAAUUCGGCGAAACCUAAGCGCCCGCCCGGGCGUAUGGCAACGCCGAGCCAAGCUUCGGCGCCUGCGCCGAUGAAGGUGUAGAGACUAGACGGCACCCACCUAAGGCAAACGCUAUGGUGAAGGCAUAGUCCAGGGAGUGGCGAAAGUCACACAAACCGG

# Variants of: B1
# Assay Summary: reverse-splicing fitness (ratio to wild type); higher = more active; in vitro selection; Mg2+ level not given
So basically: reverse-splicing fitness at 0.01 or higher? That is Met. Lower than 0.01? That is Not met.

Mutation Name: C82G A111G A120U A145G C150G C169G
Classification: Not met
//
Mutation Name: C82A A111G A120C A145U C150A C169A U176C
Classification: Met

// switching to the query variant
-- ask Please tell me: is the variant C82A A111C A120G A145U at or over 0.01 in terms of reverse-splicing fitness?
-- reply Met
